Here the recorded composite z-score is given for each entry.
PROTOCOL_DETAILS: probe aInhba binding on compound microarray – biochemical, small-molecule microarray, 635/667 nm fluorescence, primary screen (AID 1148);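 further: score merges 667nm spot fluorescence with signal-to-noise for antibody binding to printed compounds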
CONDITION_SUMMARY: higher = more signal
REPORTED_ENDPOINT: composite z-score

COCCOC(=O)N1C(=O)[C@@]2(c3cc(C#CC4(O)CCCCCC4)ccc31)[C@H](C(=O)N1CCc3cc(OC)c(OC)cc3C1)[C@H]1C(=O)O[C@H](c3ccccc3)[C@H](c3ccccc3)N1[C@@H]2c1ccc(OCCO)cc1
-0.0736
C[N+](C)(C)CCCC[C@@H]1NC(=O)[C@@H]2C[C@H](C(=O)NCCCCCCN)[C@H](c3cccc(OCCO)c3)N2C1=O
1.22
CCCCC(O)C1C=CC2C(=O)N(C)C(=O)C2N1N(c1ccccc1)c1ccccc1 (stereo unspecified)
0.0075
CC1CC/C=C\[C@H]2OC34C=CCN(C(C)(C)C)C(=O)[C@H]3N(CCCCCO)C(=O)[C@@H]4C2C(=O)O1 (stereo partly specified)
-0.253
CC(C)N1C(=O)c2ccccc2[C@@H](C(=O)NCCN2CCOCC2)[C@@H]1c1ccc(CO)cc1
-0.238
NC(=O)[C@H]1[C@@H]2C(=O)O[C@@H](c3ccccc3)[C@@H](c3ccccc3)N2[C@@H](c2ccc(OCCO)cc2)[C@]12C(=O)Nc1ccc(C#CCCO)cc12
0.136
C=C(/C(=C/C[C@H](OC(C)=O)c1ccc(CO)o1)c1cnc2ccccc2c1)C(C)C
0.0528
COc1cc(C(O)C2C=CC3C(=O)N(C)C(=O)C3N2Nc2ccccc2)cc(OC)c1OC (stereo unspecified)
0.813
CCCCC[C@H]1OC[C@@]23C=C(Br)[C@@H](CC12)[C@@]1(CO1)C3=O (stereo partly specified)
-0.128
COC(=O)[C@]1(CCS(=O)(=O)c2ccccc2)N=C(c2ccc(OCCCO)cc2)O[C@@H]1c1ccccc1N=[N+]=[N-]
0.438
CCCNC(=O)[C@@]1(Sc2ccc(C)cc2)CC(=O)N(C2Cc3ccccc3C2)[C@@H]1c1ccc(CO)cc1I
0.27
NCCCCCNC(=O)[C@H]1C[C@H]2C(=O)N3CCC[C@H]3C(=O)N2[C@H]1c1cccc(OCCO)c1
0.0792
CN1C2C=C(CCCO)C(C3C(=O)N(C(N)=O)C(=O)C32)C1C1CC1 (stereo unspecified)
-0.0963
[N-]=[N+]=Nc1ccccc1C[C@]1(C(=O)NCCN2CCOCC2)COC(c2ccc(OCCCO)cc2)=N1
0.0497
CC1CC/C=C\[C@H]2OC34C=CCN(c5ccc(Cl)cc5)C(=O)[C@H]3N(C(C)CO)C(=O)[C@]4(C)C2C(=O)O1 (stereo partly specified)
-0.401
CS(=O)(=O)CCOC(=O)C1=CC(c2ccc(CO)cc2)=CC(C2CC2)N(Cc2sc3ccccc3c2Cl)C=C1C(=O)OCCS(C)(=O)=O (stereo unspecified)
0.0843

----------
Here the recorded z-score is given for each entry.
PROTOCOL_DETAILS: optical density change of DRC41 E. coli – strain DRC41, OD650, 24 h, E. coli filamentation project, primary screen (AID 1093);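 further: MC1000 strain lacking acrAB efflux and sulA so SOS filamentation is blocked; test concentration not given here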
CONDITION_SUMMARY: E. coli DRC41 growth, higher = more signal, called active from +8 up or from −8 down
REPORTED_ENDPOINT: z-score

COC(=O)C/C=C/C[C@]1(O)C(=O)N(C)c2ccccc21
1.48
CCCC[C@@H](O)C1=C(COC)C[C@H]2C(=O)N(Cc3ccccc3)C(=O)[C@H]2[C@H]1CO
0.649
COc1ccc(C(=O)Nc2ccc(CN3C(=O)[C@]4(O[C@H](CC(=O)N5Cc6ccccc6C[C@H]5CO)[C@@H]([Si](C)(C)c5ccc(OC)cc5)[C@@H]4C)c4ccccc43)cc2)cc1
0.315
CC1CC/C=C\[C@H]2OC34C=CCN(Cc5ccccc5)C(=O)[C@H]3N(C(CO)C(C)C)C(=O)[C@@H]4C2C(=O)O1 (stereo partly specified)
0.154
C#Cc1cc2ccccc2oc1=O
-1.45
CC(C)[Si](C#CCCCC#N)(O[C@H](c1ccccc1)c1cn(Cc2ccccc2)nn1)C(C)C
1.84
COc1cc2c(cc1O)C(C1CC1)N(Cc1cccc(OC(F)(F)F)c1)CC2 (stereo unspecified)
0.394
CCCCCN1CC=CC23O[C@@H]4/C=C\CCCOC(=O)C4[C@H]2C(=O)N(C(C)CO)[C@@H]3C1=O (stereo partly specified)
0.815
COCCOC(=O)N1C(=O)[C@@]2(c3ccccc31)[C@H](C(=O)NC[C@H](O)c1ccccc1)[C@H]1C(=O)O[C@H](c3ccccc3)[C@H](c3ccccc3)N1[C@@H]2c1ccc(O)cc1
1.14
CCCCN1CC=CC23O[C@@H]4/C=C\CCCOC(=O)C4[C@H]2C(=O)N(CCO)[C@@H]3C1=O (stereo partly specified)
2.12
CCCNC(=O)[C@@]1(C)c2ccccc2C(=O)N(c2ccc(C)cn2)[C@H]1c1ccc(CO)cc1
-0.618
[N-]=[N+]=NCc1ccccc1C[C@@]1(C(N)=O)N=C(c2ccc(OCCCO)cc2)O[C@@H]1c1ccccc1
-0.412
CO[C@H]1O[C@H](CO)[C@@H](OC(=O)Nc2ccc(Br)cc2)[C@@H]2OC(=O)[C@@H](Cc3ccccc3)C/C=C/C[C@H](Cc3ccccc3)C(=O)O[C@@H]12
1.03
C=CCNC(=O)[C@@H]1[C@H]2C(=O)O[C@H](c3ccccc3)[C@H](c3ccccc3)N2[C@H](c2ccccc2OCCO)[C@@]12C(=O)Nc1ccc(C#CCCO)cc12
-0.372
O=C1OCCC=C[C@H]2OC34C=CCN(Cn5nnc6ccccc65)C(=O)[C@H]3N(CCCO)C(=O)[C@@H]4C12 (stereo partly specified)
1.81
[N-]=[N+]=Nc1ccccc1C[C@@]1(C(=O)NCCN2CCOCC2)N=C(c2ccc(OCCCO)cc2)O[C@@H]1c1ccccc1N=[N+]=[N-]
-0.485
